B1: library; numbered along this chain (parent)
chain: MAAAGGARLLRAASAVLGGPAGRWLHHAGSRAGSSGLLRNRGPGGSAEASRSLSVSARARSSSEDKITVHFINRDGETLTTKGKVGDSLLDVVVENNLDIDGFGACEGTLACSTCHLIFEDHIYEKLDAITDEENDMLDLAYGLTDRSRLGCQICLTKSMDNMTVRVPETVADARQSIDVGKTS

- Variants of: B1
- protocol_description: scaled log2 fold change in cell abundance, elesclomol vs control (0 = silent mean, 1 = nonsense mean) (scaled log2 ratio); higher = higher viability under elesclomol (loss of FDX1 cuproptosis function);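 also: variant abundance is its share of total variant reads in each endpoint sample, from next-generation sequencing of the integrated ORF PCR-amplified out of genomic DNA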
- cond: with HEK293T FDX1 KO; elesclomol 40 nM; glucose 10 mM; 11 days
Class key for scaled log2 fold change values: group A = under -0.2, group B = from -0.2 up to 0.4, group C = 0.4 and over

# count of solved cases: 5
- V180Y: group C
- C155I: group B
- D121L: group B
- S177R: group A
- D161P: group B

### Prompt Any idea which band `L38R` is in?
### Response group C

### Prompt Try the variant `V167T`
### Response group C

### Prompt Input `K82D`
### Response group A

### Prompt Also `H122K` ?
### Response group A

### Prompt Consider next the variant `D75C` in the same way.
### Response group B

### Prompt Would you kindly repeat that for `A15P` ?
### Response group B

### Prompt Subsequent entry: `Y124D`
### Response group C
